// pKi collected for Bcl-xL/BAK (Homo sapiens)
Here pKi is given on a logarithmic scale as minus log10 of the concentration in mol/L.

CCCC/C=C\CCCCCc1cccc(O)c1C(=O)O 5.49

Record `CCCC/C=C\CCCCCCCc1cccc(O)c1C(=O)O` has Bcl-xL/BAK (Homo sapiens) pKi equal to 6.52

* * *

biological target: Induced myeloid leukemia cell differentiation protein Mcl-1/BH3-interacting domain death agonist (Homo sapiens); assay: Inhibition of His-tagged Mcl-1/5-carboxyfluorescein-Bid (unknown origin) after 1 hr by fluorescence polarization assay
Sequence (Q07820 whole entry, the tested form may be a part): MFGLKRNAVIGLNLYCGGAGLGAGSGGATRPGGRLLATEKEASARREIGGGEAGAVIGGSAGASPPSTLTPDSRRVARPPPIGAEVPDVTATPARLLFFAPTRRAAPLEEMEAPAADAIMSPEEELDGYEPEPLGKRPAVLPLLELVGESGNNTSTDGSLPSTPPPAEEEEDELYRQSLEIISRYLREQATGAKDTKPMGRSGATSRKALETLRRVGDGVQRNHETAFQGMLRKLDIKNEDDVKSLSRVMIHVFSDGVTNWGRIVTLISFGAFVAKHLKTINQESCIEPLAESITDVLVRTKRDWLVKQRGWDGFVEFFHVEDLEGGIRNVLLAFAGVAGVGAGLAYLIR
Sequence (P55957 whole entry, further chain, the tested form may be a part): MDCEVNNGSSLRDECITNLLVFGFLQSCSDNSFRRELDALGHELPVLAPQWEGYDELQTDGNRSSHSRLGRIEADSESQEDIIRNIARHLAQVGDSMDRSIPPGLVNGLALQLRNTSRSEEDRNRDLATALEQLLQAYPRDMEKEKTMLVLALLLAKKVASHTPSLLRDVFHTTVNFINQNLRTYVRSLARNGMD
assayReadout: pKi
Here pKi is given on a logarithmic scale as minus log10 of the concentration in mol/L.

Some compounds with recorded pKi:
CCCC/C=C\CCCCCc1cccc(O)c1C(=O)O 5.24
CCCCCCCCCCCc1cccc(O)c1C(=O)O 6.15
CCCCCCCCCc1cccc(O)c1C(=O)O 4.75

Below: the item to evaluate.
Measured pKi, `O=C(O)c1c(O)cccc1CCCCCCCCc1ccccc1` : 5.43
